Target: ER (Homo sapiens, UniProt P03372)
Construct: endogenous in cells; probably T47D or MCF-7
Assay: In-cell western blot analysis, relative ER percentage (compounds B1-B126)
Format: cell-based
Settings: ER degradation, 16 hours, read-out: ICW DC50
Please respond with reported DC50 for every item in the list.

Below, each entry is followed by its recorded DC50 result.
- compound: "COc1cc(N2CCC3(CC2)CC(CN2CCN4c5cc6c(cc5OC[C@@H]4C2)C(=O)N(C2CCC(=O)NC2=O)C6)C3)ccc1[C@@H]1c2ccc3[nH]ncc3c2C[C@@H](C)N1CC(F)F (stereo partly shown)"
  readoutType: "DC50"
  reported: "< 10 nM"
- compound: "COc1cc(N2CCC3(CCN(CC(=O)N4Cc5cc6c(cc5C4)C(=O)N(C4CCC(=O)NC4=O)C6=O)CC3)CC2)ccc1[C@@H]1c2ccc3[nH]ncc3c2C[C@@H](C)N1CC(F)F (stereo partly shown)"
  readoutType: "DC50"
  reported: "10 to 100 nM"
- compound: "C[C@@H]1Cc2c(ccc3[nH]ncc23)[C@@H](c2ccc(N3CC4(CCC(CN5CCC6(CC5)COc5c6ccc6c5CN(C5CCC(=O)NC5=O)C6=O)CC4)C3)cn2)N1CC(F)(F)F (stereo partly shown)"
  readoutType: "DC50"
  reported: "< 10 nM"

// input: 7 compounds below; output: DC50 for each
1. C[C@@H]1Cc2c(ccc3[nH]ncc23)[C@@H](c2c(F)cc(N3CCC4(CC3)CN(CC(=O)N3CCN5c6cc7c(cc6OC[C@@H]5C3)C(=O)N(C3CCC(=O)NC3=O)C7)C4)cc2F)N1CC(F)F (stereo partly shown)
2. C[C@@H]1Cc2c(ccc3[nH]ncc23)[C@@H](c2ccc(N3CCC4(CC3)CC(CN3CCN5c6cc7c(cc6N(C)C[C@@H]5C3)C(=O)N(C3CCC(=O)NC3=O)C7)C4)cn2)N1CC(F)(F)F (stereo partly shown)
3. C[C@@H]1Cc2c(ccc3[nH]ncc23)[C@@H](c2ccc(N3CC4(CCC(CN5CCN6c7ccc8c(c7OC[C@H]6C5)CN(C5CCC(=O)NC5=O)C8=O)CC4)C3)cn2)N1CC(F)F (stereo partly shown)
4. C[C@@H]1Cc2c(ccc3[nH]ncc23)[C@@H](c2c(F)cc(N3CCC4(CN(CC(=O)N5CCN6c7cc8c(cc7OC[C@@H]6C5)C(=O)N(C5CCC(=O)NC5=O)C8)C4)C3)cc2F)N1CC(F)F (stereo partly shown)
5. C[C@@H]1Cc2c(ccc3[nH]ncc23)[C@@H](c2ccc(N3CCC4(CC3)CC(CN3CCN5c6ccc(C(=O)N(C)C7CCC(=O)NC7=O)nc6OC[C@H]5C3)C4)cn2)N1CC(F)(F)F (stereo partly shown)
6. C[C@H]1Cc2c(ccc3[nH]ncc23)[C@H](c2ccc(N3CC4(CCC(CN5CCN(c6ccc(NC7CCC(=O)NC7=O)cc6F)CC5)CC4)C3)cn2)N1CC(F)(F)F (stereo partly shown)
7. C[C@H]1Cc2c(ccc3[nH]ncc23)[C@H](c2ccc(NC3CN(CC(=O)N4CCN5c6cc7c(cc6OC[C@@H]5C4)C(=O)N(C4CCC(=O)NC4=O)C7)C3)cn2)N1CC(F)(F)F (stereo partly shown)

1: < 10 nM; 2: < 10 nM; 3: < 10 nM; 4: < 10 nM; 5: > 100 nM; 6: > 100 nM; 7: 10 to 100 nM

Hello, I would appreciate it if you could give DC50 for each entry below.
1. C[C@@H]1Cc2c(ccc3[nH]ncc23)[C@@H](c2c(F)cc(N3CCC(CN4CCN(c5ccc6c(c5)CN(C5CCC(=O)NC5=O)C6=O)CC4)CC3)cc2F)N1CC(F)F (stereo partly shown)
2. COc1cc(N2CCC3(CC2)CC(CN2CCC4(CC2)COc2c4ccc4c2CN(C2CCC(=O)NC2=O)C4=O)C3)ccc1[C@@H]1c2ccc3[nH]ncc3c2C[C@@H](C)N1CC(F)F (stereo partly shown)

["< 10 nM", "> 100 nM"]
